Where do the numbers come from? From ChEMBL document CHEMBL5365487.

Test: In vivo stability in iv dosed Hsd:ICR (CD-1) mouse brain assessed as stability measured after 5 mins by radio-HPLC analysis
Assay type: ADME, organism-based
Details: read-out: Stability
Property Name: remaining at 5 min (%)
The reply should contain only the number, in %.

smiles_string=O=C(Nc1cn2cc(-c3ccccc3CC[18F])ccc2n1)[C@@H]1C[C@@H]1F result_value=93

Recorded result, O=C(Nc1cn2cc(-c3cccc(F)c3OCC[18F])ccc2n1)[C@@H]1C[C@@H]1F , remaining at 5 min: 88

----------
Assay: Half life in C57BL6 mouse brain at 0.5 mg/kg, iv single administration measured upto 24 hrs by LC-MS/MS analysis
Format: ADME, organism-based
Property Name: half-life
Provide a numeric answer, followed by its unit.

Recorded result, Cc1cc(F)ncc1-c1ccc2nc(NC(=O)[C@@H]3C[C@@H]3F)sc2c1 , half-life: 9 h
